Just for reference, paper PMC10397247 is where these values come from.

Target: T1, 4H249-AA
T1 chain: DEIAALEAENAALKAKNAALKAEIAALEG
Test: two-hybrid library CCmax;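 further: natural log of median RNA to DNA barcode read ratio; higher means stronger binding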
Conditions: mean of both orientations
measured-parameter: interaction score
Enter the number alone.

| binder | interaction score |
| --- | --- |
| DKIAALEAENAALEAKIAALKAENAALEG [4H2219-AA] | -1.35 |
| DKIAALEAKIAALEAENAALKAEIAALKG [4H2330-AA] | -1.48 |
| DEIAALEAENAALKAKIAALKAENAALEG [4H235-AA] | -1.7 |

In the following, a different binder is considered.
Given the binder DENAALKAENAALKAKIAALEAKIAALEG [4H1765-AA] , what is its reported interaction score?
-1.63
